test: Total clearance in guinea pig at 1 mg/kg, iv; assay type: ADME, organism-based, Cavia porcellus; details: in vivo
measurement name: clearance (mL/min/kg)
Give just the number in mL/min/kg; leave the unit off.

For record `Cc1nc(C)c(-c2csc(Nc3ccc(C(=O)N4C5CCC4CN(c4ncc(C(F)(F)F)cn4)C5)cn3)n2)s1` the listed clearance is 31.1

====

assay: Stability in rat liver microsomes assessed as parent compound remaining after 30 mins in presence or absence of NADPH; assay type: ADME, microsome; conditions: read-out: Stability
Binarize remaining at 0.5 h at 50%; below is MET, at or above is NOT MET.

structure notation | class
COC(=O)N1CC2CCC(C1)N2C(=O)c1ccc(Nc2nc(-c3sc(C)nc3C)cs2)nc1 | NOT MET
CNC(=O)N1CC2CCC(C1)N2C(=O)c1ccc(Nc2nc(-c3sc(C)nc3C)cs2)nc1 | NOT MET
Cc1nc(C)c(-c2csc(Nc3ccc(C(=O)N4C5CCC4CN(c4ncc(C(F)(F)F)cn4)C5)cn3)n2)s1 | NOT MET
Cc1nc(C)c(-c2csc(Nc3ccc(C(=O)N4[C@@H]5CC[C@H]4C/C(=N/OC4CCN(C)CC4)C5)cn3)n2)s1 | NOT MET
CO/N=C1\C[C@H]2CC[C@@H](C1)N2C(=O)c1ccc(Nc2nc(-c3sc(C)nc3C)cs2)nc1 | MET

Just wondering, is remaining at 0.5 h of `Cc1nc(C)c(-c2csc(Nc3ccc(C(=O)N4C5CCC4CN(c4ccc(Cl)cc4)C5)cn3)n2)s1` below 50%?
NOT MET

remaining at 0.5 h strictly < 50% for this compound? `CC(=O)N1CC2CCC(C1)N2C(=O)c1ccc(Nc2nc(-c3sc(C)nc3C)cs2)nc1`
NOT MET

Find out if reported remaining at 0.5 h for `Cc1nc(C)c(-c2csc(Nc3ccc(C(=O)N4[C@@H]5CC[C@H]4C/C(=N/OCC(N)=O)C5)cn3)n2)s1` is less than 50%
NOT MET
